Every entry's value here was drawn from patent US6284768A.

tested on: Inter-leukin 2 (IL-2) production by activated Human Primary T Lymphocytes; assay: Primary T cell assay: inhibition of IL-2 production by activated human primary CD4 positive T lymphocytes; assay type: cell-based; details: Homo sapiens, CD4 positive, Table 5; mean IC50 value; CD4 positive T cells activated with anti-CD3/anti-CD28, IL-2 by ELISA; read-out: IC50 (blocking IL-2 production)
PARAMETER MEASURED: IC50 (µM)

>>> readout_value("COc1ccc(Cn2c(C)cc(C)c(NC(=O)[C@H](Cc3ccc(C(C)(C)C(=O)O)cc3)NC(=O)Cc3ccc4ccccc4c3)c2=O)cc1 [Compound 219]")
70
>>> readout_value("CCCCCCn1ccc(C)c(NC(=O)C(Cc2ccc(C(C)(C)C(=O)O)cc2)NC(=O)Cc2ccc3ccccc3c2)c1=O (stereo not drawn) [Compound 137]")
75
>>> readout_value("Cc1ccn(CCc2ccccc2)c(=O)c1NC(=O)C(Cc1ccc(C(C)(C)C(=O)O)cc1)NC(=O)Cc1ccc2ccccc2c1 (stereo not drawn) [Compound 200]")
87
>>> readout_value("COc1ccc(Cn2ccc(C)c(NC(=O)C(Cc3ccc(C(C)(C)C(=O)O)cc3)NC(=O)COc3cccc4c(N(C)C)cccc34)c2=O)cc1 (stereo not drawn) [Compound 175]")
108
>>> readout_value("CCc1ccc(Cn2ccc(C)c(NC(=O)C(Cc3ccc(C(C)(C)C(=O)O)cc3)NC(=O)Cc3ccc4ccccc4c3)c2=O)cc1 (stereo not drawn) [Compound 150]")
60
>>> readout_value("COc1ccc(Cn2ccc(C)c(NC(=O)C(Cc3ccc(C(C)(C)C(=O)O)cc3)NC(=O)Cc3ccc(Oc4ccccc4)cc3)c2=O)cc1 (stereo not drawn) [Compound 172]")
96

[A] COc1ccc(Cn2ccc(C)c(NC(=O)C(Cc3ccc(C(C)(C)C(=O)O)cc3)NC(=O)C(C)(C)c3ccccc3)c2=O)cc1 (stereo not drawn) [Compound 180]
[B] COc1ccc(Cn2ccc(C)c(NC(=O)C(Cc3ccc(C(C)(C)C(=O)O)cc3)NC(=O)Cc3ccc4ccccc4c3)c2=O)cc1C (racemic) [Compound 149]
Would you kindly point out which of A and B has the smaller IC50 figure? Refer to your chosen item by its label in the answer. B
(B: 54 µM, A: 82 µM)

###

molecular target: p56lck GST-SH2 (lck SH2 domain) (Homo sapiens, UniProt P06239); construct: GST (N); assay: Receptor-ligand equilibrium binding constants by surface plasmon resonance (biosensor), lck SH2 domain; conditions: Table 1, compounds of formula (II)
Sequence (P06239 127-224 limits assumed): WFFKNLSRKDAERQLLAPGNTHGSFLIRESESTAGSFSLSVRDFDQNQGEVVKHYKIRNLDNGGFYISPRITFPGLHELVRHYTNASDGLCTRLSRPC
PARAMETER MEASURED: Kd (µM)

Before answering, review these 5 worked examples.
>>> readout_value("COc1ccc(Cn2ccc(C)c(NC(=O)[C@H](Cc3ccc(NC(=O)C(=O)O)cc3)NC(C)=O)c2=O)cc1")
8.3
>>> readout_value("CCCCCCn1ccc(C)c(NC(=O)C(Cc2ccc(C(C)(C)C(=O)O)cc2)NC(=O)CCc2ccccc2)c1=O (centres unmarked)")
10
>>> readout_value("COc1ccc(Cn2ccc(C)c(NC(=O)[C@H](Cc3ccc(CC(=O)O)cc3)NC(=O)Cc3ccc(N(C)C)cc3)c2=O)cc1")
12
>>> readout_value("COc1ccc(Cn2ccc(C)c(NC(=O)[C@H](Cc3ccc(C(C)(C)C(=O)O)cc3)NC(=O)Cc3ccccc3)c2=O)cc1")
0.43
>>> readout_value("CCc1cn(Cc2ccc(OC)cc2)c(=O)c(NC(=O)C(Cc2ccc(C(C)(C)C(=O)O)cc2)NC(=O)Cc2ccc3ccccc3c2)c1C (centres unmarked)")
1.2

[P] Cc1ccn(CCc2ccccc2)c(=O)c1NC(=O)C(Cc1ccc(C(C)(C)C(=O)O)cc1)NC(=O)Cc1ccc2ccccc2c1 (centres unmarked)
[Q] COc1ccc(Cn2ccc(C)c(NC(=O)C(Cc3ccc(C(C)(C)C(=O)O)cc3)NC(=O)COc3cccc4ccccc34)c2=O)cc1 (centres unmarked)
[R] COc1ccc(Cn2ccc(C)c(NC(=O)[C@H](Cc3ccc(NC(=O)C(=O)O)cc3)NC(=O)Nc3ccc(C(C)C)cc3)c2=O)cc1
Put these in order: smallest Kd first, largest last. Put the labels in the requested order and write them down. Q, P, R
(Q: 1 µM, P: 2.2 µM, R: 12 µM)

[1] Cc1ccn(Cc2ncc(C(F)(F)F)cc2Cl)c(=O)c1NC(=O)[C@H](Cc1ccc(C(C)(C)C(=O)O)cc1)NC(=O)Cc1ccc2ccccc2c1
[2] COc1ccc(Cn2ccc(C)c(NC(=O)[C@H](Cc3ccc(CC(=O)O)cc3)NC(=O)OCc3ccccc3)c2=O)cc1
Rank 1 against 2 by their Kd values and give the higher one. In your reply, give the label of the chosen option. 2

###

Target: p56lck GST-SH2 (lck SH2 domain) (Homo sapiens)
Construct: GST (N)
Test: Receptor-ligand equilibrium binding constants by surface plasmon resonance (biosensor), lck SH2 domain
Conditions: Table 1, compounds of formula (II)
Experimental: The general methods for the determination of Receptor-Ligand Kinetic and Equilibrium Binding Constants using Surface Plasmon Resonance as applied to the lck SH2 Domain have been described in: M. M. Morelock, R. H. Ingraham, R. Betageri. General Biosensor Methods. […] The surface was regenerated by 4μL of 20 mM HCl followed by 4 μL of 150 mM Tris base. […] For the data analyzed for linear function the equilibrium plateau values without the sample refractive index subtracted were used. […]
pKd: −log10 of the molar value.
PARAMETER MEASURED: pKd

>>> readout_value("CCCCCCn1cc(C(=O)OC)c(C)c(NC(=O)C(Cc2ccc(C(C)(C)C(=O)O)cc2)NC(=O)C(C)(C)c2ccc3ccccc3c2)c1=O (stereo not shown) [Compound 121]")
5.57

[a] COc1c(F)c(F)c(Cn2ccc(C)c(NC(=O)C(Cc3ccc(C(C)(C)C(=O)O)cc3)NC(=O)Cc3ccc4ccccc4c3)c2=O)c(F)c1F (stereo not shown) [Compound 153]
[b] COc1ccc(Cn2ccc(C)c(NC(=O)[C@H](Cc3ccc(C(C)(C)C(=O)O)cc3)NC(=O)Cc3ccc(NCc4ccccc4)cc3)c2=O)cc1 [Compound 130]
[c] COc1ccc(Cn2ccc(C)c(NC(=O)[C@H](Cc3ccc(C(CO)C(=O)O)cc3)NC(=O)Cc3cccc4ccccc34)c2=O)cc1 (stereo partly shown) [Compound 136]
// smallest pKd at index 0, largest at the end Form entry: labels listed in requested order. c, a, b

###

biological target: p56lck GST-SH2 (lck SH2 domain) (Homo sapiens); construct: GST (N); test: Receptor-ligand equilibrium binding constants by surface plasmon resonance (biosensor), lck SH2 domain; conditions: Table 1, compounds of formula (II)
pKd: −log10 of the molar value.
PARAMETER MEASURED: pKd

[a] CCCCCCn1cc(Br)c(C)c(NC(=O)C(Cc2ccc(C(C)(C)C(=O)O)cc2)NC(=O)Cc2ccc3ccccc3c2)c1=O (stereo not shown)
[b] Cc1ccn(CCc2ccccc2)c(=O)c1NC(=O)[C@H](Cc1ccc(CC(=O)O)cc1)NC(=O)Cc1cccc2ccccc12
[c] Cc1ccn(Cc2ccc3c(c2)OCO3)c(=O)c1NC(=O)C(Cc1ccc(C(C)(C)C(=O)O)cc1)NC(=O)Cc1ccc2ccccc2c1 (stereo not shown)
Give the descending pKd ranking for the 3 compounds listed above. Please list the labels in the order you were asked to rank them. c, a, b
(c: 6.43, a: 6.14, b: 4.52)

###

test system: Inter-leukin 2 (IL-2) production by activated Human Primary T Lymphocytes; assay: Primary T cell assay: inhibition of IL-2 production by activated human primary CD4 positive T lymphocytes; assay type: cell-based; conditions: Homo sapiens, CD4 positive, Table 5; mean IC50 value; CD4 positive T cells activated with anti-CD3/anti-CD28, IL-2 by ELISA; read-out: IC50 (blocking IL-2 production)
PARAMETER MEASURED: IC50 (µM)

>>> readout_value("COc1ccc(Cn2ccc(C)c(NC(=O)[C@H](Cc3ccc(C(C)(C)C(=O)O)cc3)NC(=O)Cc3cccc4ccccc34)c2=O)cc1")
96
>>> readout_value("CCCCCCn1ccc(C)c(NC(=O)C(Cc2ccc(C(C)(C)C(=O)O)cc2)NC(=O)Cc2c(F)c(F)c(F)c(F)c2F)c1=O (centres unmarked)")
94
>>> readout_value("Cc1ccn(CC2CCCCC2)c(=O)c1NC(=O)C(Cc1ccc(C(C)(C)C(=O)O)cc1)NC(=O)Cc1cccc2ccccc12 (centres unmarked)")
84
>>> readout_value("CCCCCCn1ccc(C)c(NC(=O)C(Cc2ccc(C(C)(C)C(=O)O)cc2)NC(=O)Cc2ccc(C(F)(F)F)cc2)c1=O (centres unmarked)")
92
>>> readout_value("Cc1ccn(Cc2ncc(C(F)(F)F)cc2Cl)c(=O)c1NC(=O)[C@H](Cc1ccc(C(C)(C)C(=O)O)cc1)NC(=O)Cc1ccc2ccccc2c1")
107
